Data origin: ChEMBL document CHEMBL5365518

Please respond with reported pIC50 for every item in the list.
target or test system: UniProtKB P07900
Note on units: pIC50 is unitless, being -log10 of a concentration expressed in mol/L.

Quote pIC50 reported for CC[N+](C)(C)CCOc1ccc2c(c1)CN(C(=O)c1ccc(O)c(Sc3ccc(C)c(C)c3)c1)C2 please.
6.44

Quote pIC50 reported for Cc1ccc(Sc2cc(C(=O)N3Cc4ccc(OCCCN(C)C)cc4C3)ccc2O)cc1C please.
6.29

Quote pIC50 reported for Cc1ccc(Sc2cc(C(=O)N3Cc4ccc(OCCC[N+](C)(C)C)cc4C3)ccc2O)cc1C.O=C([O-])C(F)(F)F please.
6.47

Quote pIC50 reported for Cc1ccc(Sc2cc(C(=O)N3Cc4ccc(OCC[N+](C)(C)C)cc4C3)ccc2O)cc1C.O=C([O-])C(F)(F)F please.
6.19

Quote pIC50 reported for Cc1ccc(Sc2cc(C(=O)N3Cc4ccc(OCCC[N+](C)(C)Cc5ccccc5)cc4C3)ccc2O)cc1C.O=C([O-])C(F)(F)F please.
6.02

Quote pIC50 reported for Cc1ccc(Sc2cc(C(=O)N3Cc4ccc(OCCCC[N+](C)(C)[O-])cc4C3)ccc2O)cc1C please.
4.04

Quote pIC50 reported for Cc1ccc(Sc2cc(C(=O)N3Cc4ccc(OCCCC[N+](C)(C)C)cc4C3)ccc2O)cc1C please.
5.13

Quote pIC50 reported for Cc1ccc(Sc2cc(C(=O)N3Cc4ccc(OCCN(C)C)cc4C3)ccc2O)cc1C please.
6.07

Quote pIC50 reported for Cc1ccc(Sc2cc(C(=O)N3Cc4ccc(OCCC[N+](C)(C)[O-])cc4C3)ccc2O)cc1C please.
4.37
